Cited source: PubChem BioAssay

# Assay summary: A549 lung cancer cell viability effects, profiling panel, resazurin fluorescence, 24 h, PK04 Diversity Set (AID 1171); further: test concentration not given here
# Run parameters: higher = more signal, called active from +8 up or from −8 down
Label False if z-score falls below -0.1; label True in every other case.

# count of solved cases: 6
| Compound | Class |
| --- | --- |
| CCCNC(=O)OC[C@H]1O[C@H](CCON=C(C)C)C=C[C@@H]1Oc1ccc(OC)cc1 | True |
| CC[C@@H](c1ccccc1)n1c(=O)n2n(c1=O)[C@H]1[C@H](O)[C@@H]3O[C@@H]3C(=O)[C@H]1CC2 | False |
| COC(=O)[C@H](C)NC(=O)CCC1CC(OC(=O)NCc2cccc3ccccc23)CC2(CCCC(COC(=O)NCC(c3ccccc3)c3ccccc3)O2)O1 (some centres undefined) | True |
| CC(C)(C)N1C(=O)[C@H]2[C@H]3[C@H](O)[C@H](O)CC(=NO[C@@H]4O[C@H](CO)[C@@H](O)[C@H](O)[C@H]4O)[C@H]3CC[C@H]2C1=O | False |
| COC(=O)[C@@H]1CC[C@@H](C)[C@H](c2ccc(Br)cc2)N1 | True |
| COC(=O)[C@H]1[C@@H](O)[C@@]2(O)c3ccccc3O[C@@]2(c2ccccc2)[C@@H]1c1ccccc1 | False |

Input line: Record C#CCCCON=C1C[C@@H](O)[C@@H](O)[C@@H]2[C@@H]3C(=O)N(C(C)(C)C)C(=O)[C@@H]3CC[C@@H]12 ; criterion: z-score no lower than -0.1. Met?
Output line: False

Input line: Record COC(=O)CC=C[C@@H](C)[C@@H](C=NO[C@H](C)c1cn([C@@H]2COC[C@H]2O)nn1)NS(=O)(=O)c1ccc(C)cc1 ; criterion: z-score no lower than -0.1. Met?
Output line: False

Input line: Record COCCNC(=O)OCC1CCCC2(CC(OC(=O)NCc3ccc4c(c3)OCO4)CC(CCC(=O)N[C@@H](C)C(=O)OC)O2)O1 (some centres undefined) ; criterion: z-score no lower than -0.1. Met?
Output line: True

Input line: Record CC(C)=CCCC(C)=CCON=C1C[C@@H](O)[C@@H](O)[C@@H]2[C@@H]3C(=O)N(Cc4ccccc4)C(=O)[C@@H]3CC[C@@H]12 ; criterion: z-score no lower than -0.1. Met?
Output line: True

Input line: Record COC(=O)CC=C[C@@H](C)[C@@H](C=NOC(C)CN1CCCc2nc(C)c(C)cc21)OC (some centres undefined) ; criterion: z-score no lower than -0.1. Met?
Output line: False

Input line: Record COC(=O)[C@@H]1CC[C@H](C)[C@@H](c2ccc(C)cc2)N1C(=O)c1ccc(C=NOCC[C@@H]2C=C[C@H](OC(C)=O)[C@@H](COC(C)=O)O2)cc1 ; criterion: z-score no lower than -0.1. Met?
Output line: True

Input line: Record COc1ccc(COC(=O)NN=C2C[C@@H](O)[C@@H](O)[C@@H]3[C@@H]4C(=O)N(C5CCCCC5)C(=O)[C@@H]4CC[C@H]23)cc1 ; criterion: z-score no lower than -0.1. Met?
Output line: True

Input line: Record COC(=O)CC=C[C@@H](C)[C@@H](C=NOC[C@@H](O)[C@H]1O[C@@H]2OC(C)(C)O[C@@H]2[C@H]1O)NS(=O)(=O)c1ccc(C)cc1 ; criterion: z-score no lower than -0.1. Met?
Output line: False
